clearance: recorded values
Test: Tested for systemic clearance upon intravenous administration of 5.0 mg/Kg dose in dog
Type: ADME, organism-based, Canis lupus familiaris
Details: in vivo
Expressed in mL/min/kg, but write only the number.

[[record]]
molecule = "O=C1N(Cc2ccc(CO)cc2)[C@H](Cc2ccccc2)[C@H](O)[C@@H](O)[C@@H](Cc2ccccc2)N1Cc1ccc(CO)cc1 [DMP-323]"
value_measured = 24.7


What value of clearance has been recorded for this entry: CC(C)(O)c1cccc(CN2C(=O)N(Cc3cccc(C(C)(C)O)c3)[C@H](Cc3ccccc3)[C@H](O)[C@@H](O)[C@H]2Cc2ccccc2)c1
15.5

====

Assay: tmax upon peroral administration of 10.0 mg/Kg dose in dog
Format: ADME, organism-based, Canis lupus familiaris
Conditions: in vivo, po
observed property: Tmax (min)
Field: numeric (min). Do not append units.

[[record]]
molecule = "CC(C)(O)c1cccc(CN2C(=O)N(Cc3cccc(C(C)(C)O)c3)[C@H](Cc3ccccc3)[C@H](O)[C@@H](O)[C@H]2Cc2ccccc2)c1"
units_text = "min"
value_measured = 25.2


// switching to the query molecule
Suppose we examine the molecule O=C1N(Cc2ccc(CO)cc2)[C@H](Cc2ccccc2)[C@H](O)[C@@H](O)[C@@H](Cc2ccccc2)N1Cc1ccc(CO)cc1 [DMP-323] ; what Tmax value has been reported?
30

====

Reported half-life values for a set of compounds
Experiment: Tested for t1/2 upon intravenous administration of 5.0 mg/Kg dose in rat
Format: ADME, organism-based
Conditions: in vivo
Express it in h; write the number only.

[[record]]
molecular_string = "O=C1N(Cc2ccc(CO)cc2)[C@H](Cc2ccccc2)[C@H](O)[C@@H](O)[C@@H](Cc2ccccc2)N1Cc1ccc(CO)cc1"
value_measured = 0.95

[[record]]
molecular_string = "O=C1N(Cc2cccc(CO)c2)[C@H](Cc2ccccc2)[C@H](O)[C@@H](O)[C@@H](Cc2ccccc2)N1Cc1cccc(CO)c1"
value_measured = 1.1


--- query ---
Requested read-out: half-life. Entry: CC(C)(O)c1cccc(CN2C(=O)N(Cc3cccc(C(C)(C)O)c3)[C@H](Cc3ccccc3)[C@H](O)[C@@H](O)[C@H]2Cc2ccccc2)c1
1.03

====

Assay: Tested for t1/2 upon intravenous administration of 5.0 mg/Kg dose in dog
Format: ADME, organism-based, Canis lupus familiaris
Conditions: in vivo
Recorded measurements of half-life, one per entry

[[record]]
molecular_string = "CC(C)(O)c1cccc(CN2C(=O)N(Cc3cccc(C(C)(C)O)c3)[C@H](Cc3ccccc3)[C@H](O)[C@@H](O)[C@H]2Cc2ccccc2)c1"
value_measured = "1.2 h"


Suppose we examine the compound O=C1N(Cc2ccc(CO)cc2)[C@H](Cc2ccccc2)[C@H](O)[C@@H](O)[C@@H](Cc2ccccc2)N1Cc1ccc(CO)cc1 ; what half-life value has been reported?
1.8 h

====

So I've got Ki readings for Human immunodeficiency virus type 1 protease (Human immunodeficiency virus 1), take a look.
Answer format reminder: number followed by unit.

[[record]]
compound = "CC(C)(O)c1cccc(CN2C(=O)N(Cc3cccc(C(C)(C)O)c3)[C@H](Cc3ccccc3)[C@H](O)[C@@H](O)[C@H]2Cc2ccccc2)c1"
measured_target = "Human immunodeficiency virus type 1 protease (Human immunodeficiency virus 1)"
value_measured = "0.067 nM"

[[record]]
compound = "O=C1N(Cc2cccc(CO)c2)[C@H](Cc2ccccc2)[C@H](O)[C@@H](O)[C@@H](Cc2ccccc2)N1Cc1cccc(CO)c1"
measured_target = "Human immunodeficiency virus type 1 protease (Human immunodeficiency virus 1)"
value_measured = "0.4 nM"

[[record]]
compound = "CC(C)(O)c1ccc(CN2C(=O)N(Cc3ccc(C(C)(C)O)cc3)[C@H](Cc3ccccc3)[C@H](O)[C@@H](O)[C@H]2Cc2ccccc2)cc1"
measured_target = "Human immunodeficiency virus type 1 protease (Human immunodeficiency virus 1)"
value_measured = "2.2 nM"


Please examine the following record next.
Reported Ki, compound O=C1N(Cc2ccc(CO)cc2)[C@H](Cc2ccccc2)[C@H](O)[C@@H](O)[C@@H](Cc2ccccc2)N1Cc1ccc(CO)cc1 [DMP-323] : ____
0.31 nM

====

Tested on: Human immunodeficiency virus 1
Experiment: Tested for the ability to block cleavage of HIV-1 gag polyprotein using [35S]methionine-labeled ligand
Type: functional, organism-based
Known pIC50 of a selection of compounds
Answer as the number alone; pIC50 is minus log10 of concentration in mol/L.

Here is how some compounds turned out for pIC50.
[[record]]
compound = "O=C1N(Cc2ccc(CO)cc2)[C@H](Cc2ccccc2)[C@H](O)[C@@H](O)[C@@H](Cc2ccccc2)N1Cc1ccc(CO)cc1 [DMP-323]"
value_measured = 7.45

[[record]]
compound = "O=C1N(Cc2cccc(CO)c2)[C@H](Cc2ccccc2)[C@H](O)[C@@H](O)[C@@H](Cc2ccccc2)N1Cc1cccc(CO)c1"
value_measured = 8.10


Reported pIC50 for Human immunodeficiency virus 1, given CC(C)(O)c1cccc(CN2C(=O)N(Cc3cccc(C(C)(C)O)c3)[C@H](Cc3ccccc3)[C@H](O)[C@@H](O)[C@H]2Cc2ccccc2)c1 ?
7.82

====

Experiment: Bioavailability in dog (dose 10.0 mg/kg p.o.)
Assay type: ADME, organism-based, Canis lupus familiaris
Details: in vivo, po
observed property: bioavailability (%)
API: value field is a number in %; no unit string.

Returns the measured bioavailability for the input compound. Input: O=C1N(Cc2ccc(CO)cc2)[C@H](Cc2ccccc2)[C@H](O)[C@@H](O)[C@@H](Cc2ccccc2)N1Cc1ccc(CO)cc1
38.4

====

Test: Bioavailability upon peroral administration of 10.0 mg/Kg dose in rat
Assay type: ADME, organism-based
Conditions: in vivo, po, read-out: Bioavailabiility
observed property: bioavailability
The reply must contain the numeric value and, after it, the unit.

What does the data say about its bioavailability? Entry: O=C1N(Cc2ccc(CO)cc2)[C@H](Cc2ccccc2)[C@H](O)[C@@H](O)[C@@H](Cc2ccccc2)N1Cc1ccc(CO)cc1
27.1%

====

Documented Vd across a set of compounds
Experiment: Tested for volume of distribution at steady state upon intravenous administration of 5.0 mg/Kg dose in rat
Format: ADME, organism-based
Conditions: in vivo, read-out: Vss
A number alone suffices; assume L/kg.

Use the examples below as a reference point.
[[record]]
molecular_string = "CC(C)(O)c1cccc(CN2C(=O)N(Cc3cccc(C(C)(C)O)c3)[C@H](Cc3ccccc3)[C@H](O)[C@@H](O)[C@H]2Cc2ccccc2)c1"
observed_property = "Vd"
units_text = "L/kg"
value_measured = 3.04

[[record]]
molecular_string = "O=C1N(Cc2cccc(CO)c2)[C@H](Cc2ccccc2)[C@H](O)[C@@H](O)[C@@H](Cc2ccccc2)N1Cc1cccc(CO)c1"
observed_property = "Vd"
units_text = "L/kg"
value_measured = 9.8


Consider the compound shown here: O=C1N(Cc2ccc(CO)cc2)[C@H](Cc2ccccc2)[C@H](O)[C@@H](O)[C@@H](Cc2ccccc2)N1Cc1ccc(CO)cc1 What is its recorded Vd?
6.36
